Ref: ChEMBL document CHEMBL1914390

# pIC50 values compiled below
# TEST SUMMARY: Inhibition of HCV recombinant N-terminal histidine-tagged NS3/4A protease expressed Escherichia coli using Mca-Asp-Asp-Ile-Val-Pro-Cys-Ser-Met-Lys(Dnp)-Arg-Arg as fluorogenic substrate after 30 mins by FRET assay
# Set-up: species or system Hepacivirus hominis
Expect pIC50 as a plain number equal to -log10 of the molar concentration.

Below, each entry is followed by its recorded pIC50 result.
• COc1ccc(C(=O)Cc2ccc3ccccc3c2/C=N/NC(=O)COc2ccc([N+](=O)[O-])cc2)cc1 = 4.19
• COc1cc(/C=N/NC(=O)COc2ccc([N+](=O)[O-])cc2)ccc1OC(=O)c1sc2ccccc2c1Cl = 4.91
• CCC(C)Oc1ccc(/N=N/C(=O)c2cc3cc([N+](=O)[O-])ccc3o2)cc1Br (stereo unspecified) = 4.64
• COc1cc(/C=N/NC(=O)c2cc3cc([N+](=O)[O-])ccc3o2)c(C)cc1OCc1ccc([N+](=O)[O-])cc1 = 4.77
• CC(Oc1ccc([N+](=O)[O-])cc1)C(=O)N/N=C/c1ccccc1OC(=O)c1sc2ccccc2c1Cl (stereo unspecified) = 6.00
• CCc1cc(OCc2ccc([N+](=O)[O-])cc2)c(OC)cc1/C=N/NC(=O)c1cc2cc([N+](=O)[O-])ccc2o1 = 4.92
• O=C(COc1ccc([N+](=O)[O-])cc1)N/N=C/c1ccccc1OC(=O)c1sc2ccccc2c1Cl = 5.97
• COc1cc(/C=N/NC(=O)c2cc3cc([N+](=O)[O-])ccc3o2)ccc1OCc1ccc([N+](=O)[O-])cc1 = 5.07
• COc1cc(/C=N/NC(=O)C(C)Oc2ccc([N+](=O)[O-])cc2)ccc1OC(=O)c1sc2ccccc2c1Cl (stereo unspecified) = 5.39
• C=CCc1cc(/N=N/C(=O)c2cc3cc([N+](=O)[O-])ccc3o2)cc(OCC)c1OCc1ccc(Cl)cc1 = 5.09

Next up:
Request: Looking for the measured pIC50 of COc1cc(/C=N/NC(=O)c2cc3cc([N+](=O)[O-])ccc3o2)cc([N+](=O)[O-])c1OCc1ccc([N+](=O)[O-])cc1 , can you help?
Response: 5.08
